- target.under.test: T1, AMPylated Chinese hamster BiP T229A-V461F double mutant (AMPylated BiP^T229A-V461F) (Chinese hamster (Cricetulus griseus), UniProt G3I8R9 19-654, T229A | V461F, AMP on threonine 518 (T518-AMP))
- T1 construct: BiP (Grp78), Chinese hamster (Cricetulus griseus); Construct limits: see note of m1; source: E. coli M15, purified (Ni-NTA)
- test.method.notes: BLI; Octet RED96, streptavidin sensors saturated with biotinylated GST-J (no P15); BiP^T229A-V461F at different concentrations in solution, 1 mM ATP in baseline, association and dissociation; HKM with 0.05% Triton X-100, 24°C; KD from steady state binding signals; binding sensitive to increasing KCl
- cond: both partners purified
pKd: −log10 of the molar value.
property.name: pKd

Quick one: pKd for wildtype J-domain of mouse P58/ERdj6 (residues 384-470) fused to GST (GST-J^WT) (domain or fragment, UniProt Q91YW3 384-470, looked up, biotinylated with Biotin-maleimide for the BLI experiments (a fraction of the purified protein); not biotinylated in pull-down, SEC and ATPase assays, J-domain of P58/ERdj6, mouse, residues 384-470; also called model J-domain) QRLLKQSQKRDYYKILGVKRNAKKQEIIKAYRKLALQWHPDNFQNEEEKKKAEKKFIDIAAAKEVLSDPEMRKKFDDGEDPLDAESQ ?
~4.85
